Provenance of the data: patent US10167296B2

Recorded pIC50, one value per entry.
# study.system: MNK2a (pre-activated GST-MNK2a) (Homo sapiens (Human))
# assay.method.text: MNK2a in vitro kinase assay (assay 1), ADP-Glo
# Format: biochemical
# details: read-out: Mnk2 IC50
pIC50: −log10 of the molar value.

>  <compound>
Cc1c(OCCCN2CCCC2)c(N=S(C)(C)=O)cc2ncnc(Nc3ccc(F)cc3O[C@H](C)C(F)(F)F)c12

>  <pIC50>
8.62

$$$$
>  <compound>
COc1c(N=S2(=O)CCC2)cc2ncnc(Nc3ccc(F)cc3O[C@H]3COC[C@@H]3O)c2c1C

>  <pIC50>
8.57

$$$$
>  <compound>
COc1c(N=S(C)(C)=O)cc2ncnc(Nc3cccnc3O[C@@H]3CO[C@@H]4CCO[C@@H]43)c2c1C

>  <pIC50>
8.64

$$$$
>  <compound>
COc1c(N=S2(=O)CCC2)cc2ncnc(Nc3cc4cn[nH]c4cc3OC(C)C)c2c1C

>  <pIC50>
8.41

$$$$
>  <compound>
COc1c(N=S(C)(C)=O)cc2ncnc(Nc3ccc(F)cc3O[C@@H]3CO[C@@H]4CCO[C@@H]43)c2c1C

>  <pIC50>
9.10

$$$$
>  <compound>
COc1c(N=S(C)(C)=O)cc2ncnc(Nc3ccc(Cl)cc3O[C@H](C)C(=O)NCC(F)(F)F)c2c1C

>  <pIC50>
8.59

$$$$
>  <compound>
COc1c(N=S2(=O)CCCC2)cc2ncnc(Nc3ccc(F)cc3O[C@H](C)C(F)(F)F)c2c1C

>  <pIC50>
8.80

$$$$
>  <compound>
Cc1c(O)c(N=S(C)(C)=O)cc2ncnc(Nc3ccc(F)cc3O[C@H](C)C(F)(F)F)c12

>  <pIC50>
8.16

$$$$
>  <compound>
COc1c(N=S2(=O)CCC2)cc2ncnc(Nc3ccc(F)cc3O[C@H]3CC[C@H](O)CC3)c2c1C

>  <pIC50>
8.62

$$$$
>  <compound>
COc1c(N=S(C)(C)=O)cc2ncnc(Nc3ccc(F)cc3OC3CCOCC3)c2c1C

>  <pIC50>
8.43

$$$$
>  <compound>
COc1c(N=S(C)(=O)C(C)(C)C)cc2ncnc(Nc3ccc(F)cc3O[C@@H]3CO[C@@H]4CCO[C@@H]43)c2c1C (some centres unmarked)

>  <pIC50>
8.55

$$$$
>  <compound>
Cc1c(OC2CCOC2)c(N=S(C)(C)=O)cc2ncnc(Nc3ccc(F)cc3O[C@H](C)C(F)(F)F)c12 (some centres unmarked)

>  <pIC50>
8.68

$$$$
>  <compound>
Cc1c(OCCN2CCOCC2)c(N=S(C)(C)=O)cc2ncnc(Nc3ccc(F)cc3O[C@H](C)C(F)(F)F)c12

>  <pIC50>
8.62

$$$$
>  <compound>
COc1c(N=S(C)(=O)C(C)C)cc2ncnc(Nc3ccc(F)cc3O[C@@H]3CO[C@@H]4CCO[C@@H]43)c2c1C (some centres unmarked)

>  <pIC50>
8.68

$$$$

* * *

The following compounds are shown together with reported IC50 values.
# study.system: MNK2a (pre-activated GST-MNK2a) (Homo sapiens (Human), UniProt Q9HBH9)
# Sequence (Q9HBH9 whole entry): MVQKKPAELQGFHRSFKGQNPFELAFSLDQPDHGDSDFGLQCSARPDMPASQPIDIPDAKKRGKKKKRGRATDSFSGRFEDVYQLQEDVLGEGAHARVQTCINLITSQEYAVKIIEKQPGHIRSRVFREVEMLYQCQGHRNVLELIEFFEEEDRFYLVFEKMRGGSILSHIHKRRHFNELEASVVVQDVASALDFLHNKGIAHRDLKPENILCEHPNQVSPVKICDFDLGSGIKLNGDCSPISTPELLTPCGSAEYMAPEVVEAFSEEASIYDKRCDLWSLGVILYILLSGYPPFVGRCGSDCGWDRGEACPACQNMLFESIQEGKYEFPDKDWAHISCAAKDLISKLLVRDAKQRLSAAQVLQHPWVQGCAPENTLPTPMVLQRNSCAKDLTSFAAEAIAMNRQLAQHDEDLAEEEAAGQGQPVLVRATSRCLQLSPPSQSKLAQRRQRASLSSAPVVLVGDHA
# assay.method.text: MNK2a in vitro kinase assay (assay 1), ADP-Glo
# details: read-out: Mnk2 IC50

>  <compound.structure>
COc1c(N=S2(=O)CCC2)cc2ncnc(Nc3ccc(F)cc3O[C@@H]3CO[C@@H]4CCO[C@@H]43)c2c1C

>  <study.system>
MNK2a (pre-activated GST-MNK2a) (Homo sapiens (Human), UniProt Q9HBH9)

>  <IC50>
1.2 nM

$$$$
>  <compound.structure>
COc1c(N=S2(=O)CCC2)cc2ncnc(Nc3ccc(F)cc3O[C@@H]3CO[C@H]4[C@@H]3OC[C@H]4OC)c2c1Cl

>  <study.system>
MNK2a (pre-activated GST-MNK2a) (Homo sapiens (Human), UniProt Q9HBH9)

>  <IC50>
1.3 nM

$$$$
>  <compound.structure>
COc1c(N=S(C)(C)=O)cc2ncnc(Nc3cc4cn[nH]c4cc3OC(C)C)c2c1C

>  <study.system>
MNK2a (pre-activated GST-MNK2a) (Homo sapiens (Human), UniProt Q9HBH9)

>  <IC50>
3.8 nM

$$$$
>  <compound.structure>
COc1c(N=S2(=O)CCCC2)cc2ncnc(Nc3ccc(F)cc3O[C@H]3COC[C@@H]3O)c2c1C

>  <study.system>
MNK2a (pre-activated GST-MNK2a) (Homo sapiens (Human), UniProt Q9HBH9)

>  <IC50>
2 nM

$$$$
